# reported inhibition at 3 µM; entries follow
# System tested: PfCDPK1 (Plasmodium falciparum (isolate 3D7))
# Assay notes: biochemical
# Condition: read-out: PfCDPK1 (% inhibition @ 3 uM)
# value in %; strip the unit string

Reference set, count: 5
CC(C)n1nc(-c2ccc3cc(OCc4ccc(Cl)cc4)ccc3c2)c2c(N)ncnc21 : 93
Nc1ncnc2c1c(-c1ccc3cc(OCc4ccc(Cl)cc4)ccc3c1)nn2CC1CCNCC1 : 102
Cc1cccc(-c2nn(C(C)(C)C)c3ncnc(N)c23)c1 : 89
Nc1ncnc2c1c(Cc1cccc3ccccc13)nn2CCC1CCNCC1 : 58
CC(C)n1nc(-c2ccc3cc(OC(=O)c4cccc(Cl)c4)ccc3c2)c2c(N)ncnc21 : 99

Quick check: inhibition at 3 µM of CS(=O)(=O)N1CCC(CCn2nc(Cc3cccc4ccccc34)c3c(N)ncnc32)CC1 ? 55

Quick check: inhibition at 3 µM of NCCC(=O)Nc1nc2ccc(C(=O)c3ccccc3)cc2[nH]1 ? 71

Quick check: inhibition at 3 µM of N#Cc1cccc(-c2ccc(-c3nn(CC4CCNCC4)c4ncnc(N)c34)cc2)c1 ? 97

Quick check: inhibition at 3 µM of Nc1ncnc2c1c(-c1ccc3ncccc3c1)nn2CC1CCNCC1 ? 89

Quick check: inhibition at 3 µM of CCC(=O)Nc1ccc(-c2nn(C(C)(C)C)c3ncnc(N)c23)cc1 ? 96

Quick check: inhibition at 3 µM of CC(C)c1ccc(-c2nn(C(C)C)c3ncnc(N)c23)cc1 ? 90

====

# reported inhibition at 3 µM; entries follow
# System tested: PfCDPK4 (Plasmodium falciparum (isolate 3D7), UniProt Q8IBS5)
# Assay notes: biochemical
# Condition: read-out: PfCDPK4 (% inhibition @ 3 uM)
Don't forget the unit after the value.

Nc1ncnc2c1cnn2CC1CCNCC1 : 5%
CC(C)n1nc(-c2ccc3cc(OCc4ccc(C(C)(C)C)cc4)ccc3c2)c2c(N)ncnc21 : 77%

Quick check: inhibition at 3 µM of CC(C)n1nc(-c2cccc(OCc3ccccc3Cl)c2)c2c(N)ncnc21 ? 9%

====

# reported inhibition at 3 µM; entries follow
# System tested: PfCDPK4 (Plasmodium falciparum (isolate 3D7))
# Assay notes: biochemical
# Condition: read-out: PfCDPK4 (% inhibition @ 3 uM)
# value in %; strip the unit string

Reference set, count: 5
Cn1nc(Cc2cccc3ccccc23)c2c(N)ncnc21 : 52
CCOc1ccc2cc(-c3nn(C(C)C)c4ncnc(N)c34)ccc2c1 : 99
COc1ccc(-c2nn(C(C)C)c3ncnc(N)c23)cc1OC(C)C : 11
COc1cc2ccccc2cc1-c1nn(C(C)C)c2ncnc(N)c12 : 20
NCCCCNC(=O)Nc1nc2ccc(C(=O)c3ccccc3)cc2[nH]1 : 64

Missing value: inhibition at 3 µM, PfCDPK4 (Plasmodium falciparum (isolate 3D7)), entry CC(C)c1ccc(-c2nn(C(C)C)c3ncnc(N)c23)cc1 . Fill in? 80

====

# System tested: PfCDPK1 (Plasmodium falciparum (isolate 3D7), UniProt P62344)
# Assay notes: biochemical
# Condition: read-out: PfCDPK1 (% inhibition @ 3 uM)
Reported metric: inhibition at 3 µM (%)
# value in %; strip the unit string

Reference set, count: 4
Cc1ccccc1COc1ccc2cc(-c3nn(C(C)C)c4ncnc(N)c34)ccc2c1 [Compound 49] : 88
C=CCOc1ccc2cc(-c3nn(C(C)C)c4ncnc(N)c34)ccc2c1 [Compound 41] : 101
CC(Oc1ccc2cc(-c3nn(C(C)C)c4ncnc(N)c34)ccc2c1)c1ccccc1 (centres unmarked) [Compound 53] : 98
Cc1ccc(C)c(COc2ccc3cc(-c4nn(C(C)C)c5ncnc(N)c45)ccc3c2)c1 [Compound 48] : 84

Shifting focus to the compound that follows.
Quick check: inhibition at 3 µM of CC(C)n1nc(-c2cccc3ccccc23)c2c(N)ncnc21 [Compound 7o] ? 58
